Test system: HIV-1 isolate L74V
Run description: Cytopathic cell killing assay, MT-4 cells, isolate L74V
Format: cell-based
Cond: Human immunodeficiency virus 1, MT4, read-out: EC50, isolate L74V, Table 8; MT-4 cells
Assay readout: EC50 (nM)

>>> print(df.to_string())
                                smiles_repr  assay_readout  recorded_value
0  CC(=O)Nc1cccc2c1nc(-c1c(F)cccc1F)n2Cc1c(F)cccc1F           EC50            1200
1  Nc1cccc2c1nc(-c1c(F)cccc1F)n2Cc1c(F)cccc1F           EC50             300

====

Test system: HIV-1 isolate V179D
Run description: Cytopathic cell killing assay, MT-4 cells, isolate V179D
Assay type: cell-based
Cond: Human immunodeficiency virus 1, MT4, read-out: EC50, isolate V179D
pEC50: −log10 of the molar value.
Assay readout: pEC50

In [3]: df
Out[3]:
                                smiles_repr  recorded_value
0  CCc1cccc2c1nc(-c1c(F)cccc1F)n2Cc1c(F)cccc1F            5.74

====

Target or test system: HIV-1 WT RT (Human immunodeficiency virus type 1 group M subtype B)
Run description: biochemical
Type: biochemical
Cond: WT RT
Assay readout: RT inhibition, result in words

In [3]: df
Out[3]:
                                smiles_repr                   assay_readout          recorded_value
0    Cc1cccc2c1nc(-c1c(F)cccc1F)n2Cc1ccccc1  RT inhibition, result in words  decrease in inhibition
1  Cc1cccc2c1nc(-c1c(F)cccc1F)n2Cc1c(Cl)cccc1Cl  RT inhibition, result in words  decrease in inhibition
2       Fc1cccc(F)c1-c1nc2ccccc2n1Cc1ccccc1  RT inhibition, result in words  decrease in inhibition

====

Test system: HIV-1 WT virus (NL4-3)
Run description: microbe, parasite or virus in culture
Format: cell-based
Cond: Human immunodeficiency virus 1, NL43, CEM-SS, Table 11; CEMSS/NL4-3; NRVC = no reduction in viral CPE; read-out: EC50
pEC50: −log10 of the molar value.
Measured pEC50 of individual entries
Assay readout: pEC50

>>> print(df.to_string())
                                    compound  assay_readout  recorded_value
 0  C=C(C)c1cccc2c1nc(-c1c(F)cccc1F)n2Cc1c(F)cccc1F          pEC50            5.84
 1  Oc1cccc2c1nc(-c1c(F)cccc1F)n2Cc1c(F)cccc1F          pEC50            6.19
 2  N=C(NO)c1cccc2c1nc(-c1c(F)cccc1F)n2Cc1c(F)cccc1F          pEC50            6.72
 3  N#Cc1cccc2c1nc(-c1c(F)cccc1F)n2Cc1c(F)cccc1F          pEC50            6.37
 4  O=Cc1cccc2c1nc(-c1c(F)cccc1F)n2Cc1c(F)cccc1F          pEC50            6.92
 5  CC(=O)OCc1cccc2c1nc(-c1c(F)cccc1F)n2Cc1c(F)cccc1F          pEC50            7.23
 6  NC(=O)c1cccc2c1nc(-c1c(F)cccc1F)n2Cc1c(F)cccc1F          pEC50            5.31
 7  CNc1cccc2c1nc(-c1c(F)cccc1F)n2Cc1c(F)cccc1F          pEC50            5.77
 8  Fc1cccc(F)c1Cn1c(-c2c(F)cccc2F)nc2c(CCl)cccc21          pEC50            6.74
 9  OCc1cccc2c1nc(-c1c(F)cccc1F)n2Cc1c(F)cccc1F          pEC50            7.64
10  Fc1cccc(F)c1Cn1c(-c2c(F)cccc2F)nc2c(Cl)cccc21          pEC50            6.36
11  COc1cccc2c1nc(-c1c(F)cccc1F)n2Cc1c(F)cccc1F          pEC50            7.22
12  CN(C)c1cccc2c1nc(-c1c(F)cccc1F)n2Cc1c(F)cccc1F          pEC50            5.63
13  Cc1cccc2c1nc(-c1c(F)cccc1F)n2Cc1c(F)cccc1F          pEC50            6.36
14  Fc1cccc(F)c1Cn1c(-c2c(F)cccc2F)nc2ccccc21          pEC50            5.77
15  Cc1ccnc2c1NC(=O)c1cccnc1N2C1CC1 [nevir., nevirapine, reference compound]          pEC50            7.46
